Quick rule: logD of at least 1 means rule met, below that means rule not met.

Here's what some known entries look like.
NCc1cccc(NC(=O)c2cc(Cl)cc(CN)c2)c1
rule not met
CNC(=O)[C@H](Nc1ccc2c(c1)CNC2)c1cc(Cl)cc2[nH]c(-c3ccccc3)nc12 (racemic)
rule met
CC(C)[C@H](Nc1ncnc2[nH]c(-c3cnn(C)c3)cc12)c1ccc2c(c1)S(=O)(=O)NCC2 (racemic)
rule met
CC(C)[C@H](Nc1ncnc2[nH]c(-c3cnn(CC(N)=O)c3)cc12)c1ccc2c(c1)NC(=O)CO2 (racemic)
rule met
O=C(Nc1cc(Cl)cc(-c2ccc3[nH]c(C(=O)O)cc3c2)c1)OCc1ccccc1
rule met
CC(C)[C@H](Nc1ncnc2[nH]c(-c3cnn(C)c3C#N)cc12)c1ccc2c(c1)OCCO2
rule met
N#CCCNC(=O)[C@H](Nc1ccc2c(c1)CNC2)c1cc(Cl)cc(C2CC2)c1 (racemic)
rule not met
NCc1cccc(CNC(=O)[C@H](NC(=O)OCc2ccccc2)c2ccc(OCc3ccccc3)cc2)c1 (racemic)
rule met

Is the recorded value of logD equal to or greater than 1 for this compound? NCc1cccc(NC(=O)c2cc(OCc3ccccc3)ccc2CNC(=O)OCc2ccccc2)c1
rule met

Is the recorded value of logD equal to or greater than 1 for this compound? O=C(Nc1ccc2c(c1)CNC2)c1cc(Cl)cc2[nH]ncc12
rule not met

Is the recorded value of logD equal to or greater than 1 for this compound? O=C(NCC(F)F)[C@H](Nc1cnc2c(c1)CNC2)c1cc(Cl)cc(C2CC2)c1 (racemic)
rule met

###

# condition-label: mdck_mdr1
recorded-metric: Papp (×10⁻⁶ cm/s)
The reply should be a number in ×10⁻⁶ cm/s, with the unit left off.

Reference set (3 entries):
CNC(=O)c1c[nH]c2ncnc(N[C@H](c3ccc4c(c3)NC(=O)CO4)C(C)C)c12 (racemic)
4.26
CCCC[C@H](NC(=O)OC(C)(C)C)C(=O)N[C@H](C(=O)NCc1ccc(CN)cc1)c1ccc(OCc2ccccc2)cc1 (mixture of isomers)
0.833
COc1ccc([C@H](CC(=O)O)NC(=O)c2ncnc3[nH]ccc23)cc1 (racemic)
1.7

response.value for Cc1cc(-c2noc(C(F)(F)F)n2)ccc1OCCCc1cc(C(=O)N(C)C)no1 (field: Papp) = 2.26

###

# condition-label: mdck_mdr1
This section presents compounds with their documented Papp values.
The reply should be a number in ×10⁻⁶ cm/s, with the unit left off.

Reference set (2 entries):
CNC(=O)c1c[nH]c2ncnc(N[C@H](c3ccc4c(c3)OCCO4)C(C)C)c12 (racemic)
16.2
O=C(Nc1cc(Cl)cc(C(=O)Nc2ccc3c(c2)CNC3)c1)OCc1ccccc1
1.25

Field: next compound
response.value for OCC#C[C@H](Nc1ccc2c(c1)CNC2)c1cc(Cl)cc2[nH]ncc12 (racemic) (field: Papp) = 0.592

###

This section presents compounds with their documented microsomal CLint values.
# condition-label: human; liver_microsomes
The reply should be a number in µL/min/mg, with the unit left off.

Cn1ncc(-c2cc3c(N[C@H](c4ccc5c(n4)OCCO5)C(C)(C)C)ncnc3[nH]2)c1C#N (single isomer, unassigned)
283
CC(C)[C@H](Nc1ncnc2[nH]c(-c3cnn(CC(N)=O)c3)cc12)c1ccc2c(n1)OCCO2 (racemic)
14
NCc1cccc(NC(=O)c2cc(Cl)cc(CN)c2)c1
21
CC(C)[C@H](Nc1ncnc2[nH]c(-c3cnn(C)c3C#N)cc12)c1ccc2c(n1)NC(=O)CO2 (racemic)
70

Field: next compound
response.value for CNC(=O)c1cc(Cl)c(F)cc1NS(=O)(=O)c1ccc(Oc2ccccc2Cl)cc1 (field: microsomal CLint) = 71.3

###

# condition-label: human; liver_microsomes
This section presents molecules with their documented microsomal CLint values.
The reply should be a number in µL/min/mg, with the unit left off.

Reference set (3 entries):
CNCc1cc(-c2cc3c(N[C@H](c4ccc5c(c4)S(=O)(=O)NCC5)C(C)C)ncnc3[nH]2)co1 (racemic)
46
O=C(Nc1cc(Cl)cc([C@H]2CN(Cc3ccccc3)C[C@@H]2c2cccc(-c3nn[nH]n3)c2)c1)OCc1ccccc1 (racemic)
46.3
CC(C)[C@H](Nc1ncnc2[nH]ccc12)c1ccc2c(c1)S(=O)(=O)CCC2 (racemic)
37

Field: next molecule
response.value for CCNC(=O)c1cc2c(N[C@H](c3ccc4c(c3)OCCO4)C(C)C)ncnc2[nH]1 (racemic) (field: microsomal CLint) = 85

###

# condition-label: human; liver_microsomes
Quick rule: microsomal CLint of at least 30 µL/min/mg means T, below that means F.

Here's what some known entries look like.
N#C[C@H](Nc1cccc(-c2nn[nH]n2)c1)c1cc(Cl)cc(NC(=O)OCc2ccccc2)c1 (racemic)
F
CNC(=O)c1cc2c(N[C@H](c3ccc4c(c3)S(=O)(=O)CCC4)C(C)C)ncnc2[nH]1 (racemic)
T
COc1cc(Cc2c(-c3ccc(F)cc3)noc2C)nc(N2CCNCC2)n1
F
O=C(O)c1cc(Cl)ccc1NS(=O)(=O)c1ccc(Oc2ccccc2Cl)cc1
T
C[C@H](C(=O)O)[C@@H](NC(=O)c1ncnc2[nH]ccc12)c1ccc(Br)cc1 (single isomer, unassigned)
F

Is the recorded value of microsomal CLint equal to or greater than 30 µL/min/mg for this compound? CCCC[C@H](NC(=O)OC(C)(C)C)C(=O)N[C@H](C(=O)NCc1ccc(CN)cc1)c1ccc(OCc2ccccc2)cc1 (mixture of isomers)
T

Is the recorded value of microsomal CLint equal to or greater than 30 µL/min/mg for this compound? C[C@H](C(=O)O)[C@H](NC(=O)c1ncnc2[nH]ccc12)c1ccc(Br)cc1 (mixture of isomers)
F

###

Quick rule: solubility kinetic of at least 200 µM means T, below that means F.

Here's what some known entries look like.
OCC#C[C@H](Nc1ccc2c(c1)CNC2)c1cc(Cl)cc2[nH]ncc12 (racemic)
F
O=C(O)COc1cccc(NC(=O)c2cc(Cl)cc(NC(=O)OCc3ccccc3)c2)c1
T
CC(C)NC(=O)[C@H](Nc1ccc2c(c1)CNC2)c1cc(Cl)cc2[nH]c(-c3ccccc3)nc12 (racemic)
F
CC(C)NC(=O)[C@H](Nc1ccc2c(c1)CNC2)c1cc(Cl)cc2[nH]c(-c3ccccc3)nc12 (single isomer, unassigned)
F

API: the following record is the query input.
Is the recorded value of solubility kinetic equal to or greater than 200 µM for this molecule? O=C(Nc1ccc2c(c1)CNC2)c1cc(Cl)cc2cn[nH]c12
F

###

# condition-label: mdck_mdr1
This section presents molecules with their documented Papp values.
The reply should be a number in ×10⁻⁶ cm/s, with the unit left off.

O=C(Nc1ccc2c(c1)CNC2)c1cc(F)cc2c1CCC2
10.7

response.value for CNC(=O)[C@H](Nc1ccc2c(c1)CNC2)c1cc(Cl)cc2[nH]c(-c3ccccc3)nc12 (racemic) (field: Papp) = 1.02

response.value for O=C(Nc1ccc2c(c1)CNC2)c1cc(Cl)cc2cn[nH]c12 (field: Papp) = 4.63

response.value for O=C(Nc1ccc2c(c1)CNC2)c1cc(Cl)cc2c1cnn2C1CCC1 (field: Papp) = 1

response.value for CNC(=O)[C@H](Nc1ccc2c(c1)CNC2)c1cc(Cl)cc(C2CC2)c1 (racemic) (field: Papp) = 1.5

response.value for C[C@H](C(=O)O)[C@H](NC(=O)c1ncnc2[nH]ccc12)c1ccc(Br)cc1 (mixture of isomers) (field: Papp) = 1.4

###

recorded-metric: solubility kinetic
The answer should read as a number with its unit following.

Reference set (5 entries):
NCc1cccc(NC(=O)c2cccn3cc(CN4CCCC4)nc23)c1
332 µM
O=C(O)c1cc(Cl)c(F)cc1S(=O)(=O)Nc1ccc(Oc2ccccc2Cl)cc1
396 µM
C[C@H](C(=O)O)[C@H](NC(=O)c1ncnc2[nH]ccc12)c1ccc(Br)cc1 (mixture of isomers)
386 µM
Cc1cc(-c2ccc([C@H](NC(=O)OCc3ccccc3)C(=O)Nc3cccc(CN)c3)cc2)cs1 (racemic)
8 µM
CNC(=O)c1c[nH]c2ncnc(N[C@H](c3ccc4c(c3)NC(=O)CO4)C(C)C)c12 (racemic)
28 µM

response.value for CC(C)(C)[C@H](Nc1ncnc2[nH]c(-c3cnn(CC(N)=O)c3)cc12)c1ccc2c(c1)OCCO2 (racemic) (field: solubility kinetic) = 195 µM

response.value for O=C(Nc1ccc2c(c1)CNC2)c1cc(Cl)cc2[nH]ncc12 (field: solubility kinetic) = 279 µM

response.value for CNC(=O)c1cc2c(N[C@H](c3ccc4c(c3)NC(=O)CO4)C(C)C)ncnc2[nH]1 (racemic) (field: solubility kinetic) = 372 µM

response.value for CCOc1cccc(-c2ccc(S(=O)(=O)Nc3ccc(Cl)cc3C(=O)O)cc2)c1 (field: solubility kinetic) = 392 µM

response.value for O=C(NCC(F)F)[C@H](Nc1cc2c(cc1Br)CNC2)c1cc(Cl)cc(C2CC2)c1 (racemic) (field: solubility kinetic) = 333 µM

response.value for Cn1c(=O)[nH]c2c(C(=O)Nc3ccc4c(c3)CNC4)cc(Br)cc21 (field: solubility kinetic) = 161 µM

response.value for O=C(Nc1cc(Cl)cc(C(=O)Nc2cccc(-n3nn[nH]c3=O)c2)c1)OCc1ccccc1 (field: solubility kinetic) = 107 µM

response.value for CC(C)[C@H](Nc1ncnc2[nH]c(-c3cnn(CC(N)=O)c3)cc12)c1ccc2c(c1)S(=O)(=O)CCC2 (racemic) (field: solubility kinetic) = 341 µM

response.value for CC(C)[C@H](Nc1ncnc2[nH]c(-c3cnn(CC(N)=O)c3)cc12)c1ccc2c(c1)OCCO2 (racemic) (field: solubility kinetic) = 345 µM
